# assay.system: recombinant soluble homotrimeric HA of A/Anhui/1/05 (H5N1) (Influenza A virus A/Anhui/1/2005 (H5N1))
# experiment.summary: HA microarray, BCC supernatant
# stated.conditions: remark: other sources report otherwise
# Trimeric HA Binding RLU per entry
A number alone suffices; assume RLU.

For TCN-540 (5060_F05) (antibody, V domains shown) VH: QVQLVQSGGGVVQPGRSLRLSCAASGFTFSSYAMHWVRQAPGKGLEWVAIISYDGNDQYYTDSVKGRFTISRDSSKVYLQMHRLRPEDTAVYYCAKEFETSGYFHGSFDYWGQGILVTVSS VL: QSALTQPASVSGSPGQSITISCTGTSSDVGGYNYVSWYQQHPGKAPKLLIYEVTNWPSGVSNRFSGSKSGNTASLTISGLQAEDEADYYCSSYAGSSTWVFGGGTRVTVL the binder record lists Trimeric HA Binding RLU as 25

Okay, next one:
For TCN-563 (5237_B21) (antibody, V domains shown) VH: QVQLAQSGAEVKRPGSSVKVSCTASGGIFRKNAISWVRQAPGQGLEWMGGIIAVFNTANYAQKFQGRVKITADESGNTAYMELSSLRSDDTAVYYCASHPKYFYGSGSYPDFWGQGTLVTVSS VL: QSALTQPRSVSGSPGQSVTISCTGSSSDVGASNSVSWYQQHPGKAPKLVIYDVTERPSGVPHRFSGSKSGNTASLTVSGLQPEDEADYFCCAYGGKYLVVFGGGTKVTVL the binder record lists Trimeric HA Binding RLU as 9580
